Test system: Saccharomyces cerevisiae
assay_summary: protein stability index of tFT-peptide fusion (C-terminal peptide) (PSI (0-1 scale)); higher = more stable (slower turnover)
measurement_setup: genetic background: das1 deletion; temperature: 30 C
Would you kindly list protein stability index for each of these sequences?
Answers are plain numbers.

ordered_residues	protein stability index
DDQDAISNQEKK [EIS1 C-terminal 12 aa]	0.712
EAQLSCNYEPLP [COS10 C-terminal 12 aa]	0.707

Give protein stability index for all sequences that follow.
1. RQTRNQTKELDS [DPB11 C-terminal 12 aa]
2. YSLYRSRSKEAF [SAP190 C-terminal 12 aa]
3. VKEYYKKSDVGR [ATG9 C-terminal 12 aa]
4. DLIDDKTNRGRR [PRP2 C-terminal 12 aa]

[0.703, 0.714, 0.703, 0.696]

Please look at the items below and tell me protein stability index for each one, in order.
1. NEASKATGASVH [YOP1 C-terminal 12 aa]
2. ENLVKQEAINGS [YAF9 C-terminal 12 aa]

[0.7, 0.682]
